target: Cytochrome P450 2C19 (Homo sapiens, UniProt P33261)
Sequence (P33261 whole entry): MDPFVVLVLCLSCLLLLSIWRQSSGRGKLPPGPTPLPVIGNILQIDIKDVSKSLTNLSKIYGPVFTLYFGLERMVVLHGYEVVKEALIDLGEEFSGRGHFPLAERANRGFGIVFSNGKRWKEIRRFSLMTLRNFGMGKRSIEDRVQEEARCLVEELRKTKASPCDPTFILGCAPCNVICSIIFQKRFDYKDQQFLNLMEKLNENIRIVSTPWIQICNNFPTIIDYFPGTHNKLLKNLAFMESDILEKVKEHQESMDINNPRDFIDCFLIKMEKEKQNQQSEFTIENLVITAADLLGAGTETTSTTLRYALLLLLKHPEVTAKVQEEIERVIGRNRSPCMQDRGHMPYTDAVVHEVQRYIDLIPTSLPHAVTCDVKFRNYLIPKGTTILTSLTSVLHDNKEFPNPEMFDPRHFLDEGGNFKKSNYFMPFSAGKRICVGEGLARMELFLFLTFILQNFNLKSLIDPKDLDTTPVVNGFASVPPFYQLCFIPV
quantity kind: pIC50
# reply with the number alone; pIC50 is -log10 of concentration in mol/L

>>> numeric_readout("CC1CC(C(=O)Nc2nc3ccc(Cl)cc3s2)CC(C)(C)C1 (centres undefined)")
4.81

Q) Checklist item: pIC50 tested on Cytochrome P450 2C19 (Homo sapiens, UniProt P33261), entry CC1CC(C(=O)Nc2nc3ccc(Br)cc3s2)CC(C)(C)C1 (centres undefined) , value?
A) 4.90

###

tested on: Mycobacterium intracellulare; experiment: Antimycobacterial activity against Mycobacterium intracellulare 1956 by CLSI method; type: functional
The following compounds are shown together with reported MIC values.
Record the value in µg/mL, omitting the unit from your answer.

>>> numeric_readout("CC1CC(C(=O)Nc2nc3cccc(O)c3s2)CC(C)(C)C1 (stereo unspecified)")
4
>>> numeric_readout("CC1(C)CCC(C(=O)Nc2nc3ccc(C(F)(F)F)cc3s2)CC1")
64
>>> numeric_readout("CC1CC(C(=O)Nc2nc3ccc(OC(F)F)cc3s2)CC(C)(C)C1 (stereo unspecified)")
8
>>> numeric_readout("CC12CCCC(C(=O)Nc3nc4cc(Br)ccc4s3)(CCC1)C2")
1
>>> numeric_readout("CC1CC(C(=O)Nc2nc3ccccc3s2)CC(C)(C)C1 (stereo unspecified)")
8

Q) Checklist item: MIC tested on Mycobacterium intracellulare, entry CC1CC(C(=O)Nc2nc3ccc(F)cc3s2)CC(C)(C)C1 (stereo unspecified) , value?
A) 8

###

target: CYP3A4 (Homo sapiens); assay: Inhibition of CYP3A4 (unknown origin) at 10 uM; type: ADME
Sequence (P08684 whole entry): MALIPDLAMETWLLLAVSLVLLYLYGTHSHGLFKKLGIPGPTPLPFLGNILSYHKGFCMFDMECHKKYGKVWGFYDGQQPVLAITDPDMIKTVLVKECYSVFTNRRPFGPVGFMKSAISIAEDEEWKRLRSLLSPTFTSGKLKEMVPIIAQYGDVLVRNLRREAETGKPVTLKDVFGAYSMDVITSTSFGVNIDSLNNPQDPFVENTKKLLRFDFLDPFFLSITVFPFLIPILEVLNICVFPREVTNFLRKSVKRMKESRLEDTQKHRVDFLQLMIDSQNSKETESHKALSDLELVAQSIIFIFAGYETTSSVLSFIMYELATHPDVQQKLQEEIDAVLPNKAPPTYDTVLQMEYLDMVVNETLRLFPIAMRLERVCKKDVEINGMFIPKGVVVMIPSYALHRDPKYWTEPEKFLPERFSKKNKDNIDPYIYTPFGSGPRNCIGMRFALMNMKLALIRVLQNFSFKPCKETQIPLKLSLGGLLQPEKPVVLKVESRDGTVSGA
The following molecules are shown together with reported inhibition at 10 µM values.

>>> result("CC12CCCC(C(=O)Nc3nc4cc(Cl)cc(Cl)c4s3)(CCC1)C2")
"> 50%"

Now look at this one.
Q) # input molecule: CC12CCCC(C(=O)Nc3nc4ccc(OC(F)(F)F)cc4s3)(CCC1)C2 ; wanted: its inhibition at 10 µM
A) > 50%

###

tested on: Mycobacterium tuberculosis; test: Antimycobacterial activity against Mycobacterium tuberculosis H37Rv MC2 6206 by CLSI method; assay type: functional
quantity kind: MIC (µg/mL)
Record the value in µg/mL, omitting the unit from your answer.

Worked set:
>>> numeric_readout("CC1CC(C(=O)Nc2nc3cccc(F)c3s2)CC(C)(C)C1 (configuration not stated)")
1
>>> numeric_readout("O=C(Nc1nc2ccc(OC(F)(F)F)cc2s1)C1CCCCCC1")
64
>>> numeric_readout("CC12CC3CC(C)(C1)CC(C(=O)Nc1nc4ccc(OC(F)(F)F)cc4s1)(C3)C2")
1
>>> numeric_readout("COc1ccc2nc(NC(=O)C3CC(C)CC(C)(C)C3)sc2c1 (configuration not stated)")
8
>>> numeric_readout("CC1CC(C(=O)Nc2nc3c(F)cccc3s2)CC(C)(C)C1 (configuration not stated)")
4
>>> numeric_readout("CC1CC(C(=O)Nc2nc3cc(Cl)cc(Cl)c3s2)CC(C)(C)C1 (configuration not stated)")
1
>>> numeric_readout("CC12CC3CC(C)(C1)CC(C(=O)Nc1nc4ccccc4s1)(C3)C2")
4
>>> numeric_readout("CC1CC(C(=O)Nc2nc3ccc(OC(F)F)cc3s2)CC(C)(C)C1 (configuration not stated)")
2
>>> numeric_readout("CC1CCCC(C(=O)Nc2nc3ccc(C(F)(F)F)cc3s2)C1 (configuration not stated)")
16
>>> numeric_readout("CC12CCCC(C(=O)Nc3nc4ccc(Cl)cc4s3)(CCC1)C2")
0.5

Q) # input compound: O=C(Nc1nc2ccc(C(F)(F)F)cc2s1)C1CCC2(CC1)CC2 ; wanted: its MIC
A) 32

Q) Moving on to the next compound: CC1CC(C(=O)Nc2nc3ccc(Cl)cc3s2)CC(C)(C)C1 (configuration not stated)
A) 4

Q) Moving on to the next compound: O=C(Nc1nc2ccc(OC(F)(F)F)cc2s1)C1CCCCC1
A) 64

###

test system: Mycobacterium intracellulare; assay: Antimycobacterial activity against Mycobacterium intracellulare 1956 by CLSI method; format: functional
The following compounds are shown together with reported MIC values.

>>> result("O=C(Nc1nc2ccc(OC(F)(F)F)cc2s1)C1CCCCCC1")
"> 64 µg/mL"
>>> result("CC1CC(C(=O)Nc2nc3ccc(SC(F)(F)F)cc3s2)CC(C)(C)C1 (stereo not drawn)")
"> 64 µg/mL"

Now look at this one.
Q) # input compound: CC1CCC(C(=O)Nc2nc3ccc(C(F)(F)F)cc3s2)CC1 (stereo not drawn) ; wanted: its MIC
A) > 64 µg/mL
